Experiment: NO^• scavenging
Details: mean ± SD of three replicates

[
  {
    "compound": "Cc1c(C)c2c(c(C)c1O)CCC(C)(C(=O)O)O2 (centres unmarked) [Trolox]",
    "Scavenging activity (SC50) NO^•": "0.59 ± 0.02 ^A µg/mL"
  },
  {
    "compound": "OC[C@H]1O[C@@H](Oc2cc3c(O)cc(O)cc3[o+]c2-c2ccc(O)c(O)c2)[C@H](O)[C@@H](O)[C@@H]1O [Cyanidin 3-O-glucoside, cyanidin 3-O-β-D-glucopyranoside]",
    "Scavenging activity (SC50) NO^•": "1.40 ± 0.09 ^B µg/mL"
  },
  {
    "compound": "O=c1c(O)c(-c2ccc(O)c(O)c2)oc2cc(O)cc(O)c12 [Quercetin, quercetin]",
    "Scavenging activity (SC50) NO^•": "0.48 ± 0.03 ^A µg/mL"
  },
  {
    "compound": "O=C1O[C@H]([C@@H](O)CO)C(O)=C1O [Ascorbic acid, ascorbic acid]",
    "Scavenging activity (SC50) NO^•": "0.59 ± 0.04 ^A µg/mL"
  }
]

###

Test: HOCl scavenging
Details: mean ± SD of three replicates

[
  {
    "compound": "O=C1O[C@H]([C@@H](O)CO)C(O)=C1O",
    "Scavenging activity (SC50) HOCl": "6.32 ± 0.07 ^A µg/mL"
  },
  {
    "compound": "O=c1c(O)c(-c2ccc(O)c(O)c2)oc2cc(O)cc(O)c12",
    "Scavenging activity (SC50) HOCl": "2.08 ± 0.14 ^A µg/mL"
  },
  {
    "compound": "Cc1c(C)c2c(c(C)c1O)CCC(C)(C(=O)O)O2 (centres unmarked)",
    "Scavenging activity (SC50) HOCl": "21.49 ± 1.21 ^C µg/mL"
  },
  {
    "compound": "OC[C@H]1O[C@@H](Oc2cc3c(O)cc(O)cc3[o+]c2-c2ccc(O)c(O)c2)[C@H](O)[C@@H](O)[C@@H]1O [Cyanidin 3-O-glucoside, cyanidin 3-O-β-D-glucopyranoside]",
    "Scavenging activity (SC50) HOCl": "5.62 ± 0.11 ^A µg/mL"
  }
]
